Study the reported Ki values for Glutamate receptor ionotropic, kainate 1 (Rattus norvegicus) given below; they originate from different publications.
Simple rule here: Ki less than 0.6 µM is criterion met, otherwise criterion not met.

Query string: Confirm or reject: Ki of `N[C@@H](C[C@@H](CCC(=O)NO)C(=O)O)C(=O)O` lies strictly below 0.6 µM
Result string: criterion met

Query string: Confirm or reject: Ki of NC(Cc1cc(Cl)c(Cl)c(-c2ccc(O)nc2)c1)C(=O)O (racemic) lies strictly below 0.6 µM
Result string: criterion not met

Query string: Confirm or reject: Ki of NC(Cc1cc(Cl)c(Cl)c(-c2ccc3c(c2)OCCO3)c1)C(=O)O (racemic) lies strictly below 0.6 µM
Result string: criterion not met

Query string: Confirm or reject: Ki of `N[C@@H](Cn1c(=O)[nH]c(=O)c2ccsc21)C(=O)O` lies strictly below 0.6 µM
Result string: criterion met

Query string: Confirm or reject: Ki of `N[C@@H](Cn1c(=O)[nH]c(=O)c2ccccc21)C(=O)O` lies strictly below 0.6 µM
Result string: criterion met

Query string: Confirm or reject: Ki of NC(CCCc1nonc1O)C(=O)O (stereo in doubt; (+)-18) lies strictly below 0.6 µM
Result string: criterion not met

Query string: Confirm or reject: Ki of `CC(C)(C)ONC(=O)CC[C@H](C[C@H](N)C(=O)O)C(=O)O` lies strictly below 0.6 µM
Result string: criterion not met

Query string: Confirm or reject: Ki of `N[C@@H](Cn1c(=O)[nH]c(=O)c2c3c(sc21)CCCC3)C(=O)O` lies strictly below 0.6 µM
Result string: criterion not met

Query string: Confirm or reject: Ki of `NCCC[C@H](C[C@H](N)C(=O)O)C(=O)O` lies strictly below 0.6 µM
Result string: criterion not met

Query string: Confirm or reject: Ki of Nc1cccc(-c2cc(CC(N)C(=O)O)cc(Cl)c2Cl)c1 (racemic) lies strictly below 0.6 µM
Result string: criterion not met

Query string: Confirm or reject: Ki of `N#CCC[C@H](C[C@H](N)C(=O)O)C(=O)O` lies strictly below 0.6 µM
Result string: criterion met
